- SYSTEM NAME: Aromatase (Homo sapiens)
- Sequence (P11511 whole entry): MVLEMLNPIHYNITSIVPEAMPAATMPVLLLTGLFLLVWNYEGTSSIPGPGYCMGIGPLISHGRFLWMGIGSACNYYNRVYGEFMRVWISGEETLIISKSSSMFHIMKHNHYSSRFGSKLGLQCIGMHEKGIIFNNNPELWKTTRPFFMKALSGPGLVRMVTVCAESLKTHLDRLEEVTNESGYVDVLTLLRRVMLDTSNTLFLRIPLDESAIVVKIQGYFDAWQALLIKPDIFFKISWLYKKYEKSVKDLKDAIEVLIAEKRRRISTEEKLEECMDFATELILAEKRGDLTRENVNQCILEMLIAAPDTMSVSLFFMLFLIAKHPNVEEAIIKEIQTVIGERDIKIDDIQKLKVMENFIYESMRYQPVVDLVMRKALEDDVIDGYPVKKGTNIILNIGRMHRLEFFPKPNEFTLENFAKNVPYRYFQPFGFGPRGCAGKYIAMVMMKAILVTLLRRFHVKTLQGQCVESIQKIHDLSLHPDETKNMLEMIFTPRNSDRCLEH
READOUT TYPE: pIC50
Notebook: values listed as pIC50 are -log10 of the concentration (mol/L).

Completed entries (count: 5):
MOLECULE | SYSTEM NAME | pIC50
C[C@]12CC[C@H]3[C@@H](C[C@H](O)C4=CCCC[C@@]43CO)[C@@H]1CCC2=O | Aromatase (Homo sapiens) | 6.00
CC(=O)OC1CCC[C@@]2(CO)C1=CC[C@@H]1[C@@H]2CC[C@]2(C)C(=O)CC[C@@H]12 (some centres not stated) | Aromatase (Homo sapiens) | 4.96
C[C@]12CCCC(OC(=O)c3ccccc3)=C1CC[C@@H]1[C@@H]2CC[C@]2(C)C(=O)CC[C@@H]12 | Aromatase (Homo sapiens) | 6.19
C[C@]12CCC=C[C@@H]1CC[C@@H]1[C@@H]2CC[C@]2(C)[C@@H](O)CC[C@@H]12 | Aromatase (Homo sapiens) | 4.52
C[C@H]1CCC[C@@]2(C)C1=CC[C@@H]1[C@@H]2CC[C@]2(C)C(=O)CC[C@@H]12 | Aromatase (Homo sapiens) | 5.74

Recorded pIC50 (molecule C[C@]12CC[C@H]3O[C@H]3[C@@H]1CC[C@@H]1[C@@H]2CC[C@]2(C)[C@@H](O)CC[C@@H]12 ): 5.19

Briefly, pIC50 measured for CC(=O)OC1=C2CC[C@@H]3[C@H](CC[C@]4(C)C(=O)CC[C@@H]34)[C@@]2(CO)CCC1 : 5.44

Where these numbers come from: ChEMBL document CHEMBL1629480
